Test system: TK-10 renal
Test: NCI-60 one-dose screen, 48 h (100 = growth as untreated, 0 = no growth, -100 = all killed)
Conditions: 10 µM unless noted
Compounds without any hit were thinned out: in the full panel of roughly 83,000, 20% have a hit.
QUANTITY: growth (%)
All answers are understood in %, so give the number only.

State the recorded growth for this entry: CN(C)c1ccc(CNC(C(=O)c2ccccc2)c2ccccc2)cc1 (stereo not given)
112

Thanks! And O=C(O)CCC(NC(=O)OCc1ccccc1)C(=O)O (stereo not given) ?
93.1

And for CC(=O)c1c[nH]c2ccccc12 ?
108

// next record CCOC(=O)c1cc(/C=C/c2ccc(Cl)cc2Cl)on1
155

Another compound: CC(=O)C1CCCCC1
99.5

And then c1ccc(Sc2ccccc2)cc1 , what is it?
101

What would you report for C=CCNc1nnc(C)s1 ?
123

Next record, please: C1CNC(C2=NCCN2)=N1
103

Item: COc1cc2c(cc1OC)[C@H](C(=O)O)[C@@H](c1ccc(OC(C)C)c(OC)c1)N(C)C2=O
96.2

Please answer likewise for Clc1ccc(-c2n[nH]c3c2Cc2ccccc2-3)cc1Cl
101

Entry to check: N#C/C(=C\c1cc(O)c(O)c(O)c1)C(N)=O
116

Let us now turn to O=C1C=CC2=C3c4cc(O)c(O)cc4CC3(O)COC2=C1O (stereo not given)
101

Also Cc1cc(C(C)(C)C)cc(C)c1Br ?
113

What about CCOC(=O)C(O)C(O)C(=O)OCC (stereo not given) ?
102

Param item: Cc1cc(=O)[nH]c(NN=C2CCCC2)n1
122

====

Please provide measured growth for the entries that follow.
Test system: HT29 colon
Experiment: NCI-60 one-dose screen, 48 h (100 = growth as untreated, 0 = no growth, -100 = all killed)
Details: 10 µM
Compounds without any hit were thinned out: in the full panel of roughly 83,000, 20% have a hit.
Field: numeric (%). Do not append units.

Name the reported growth value associated with the compound CCC/C=C(\C)C(C)(C#N)C(=O)OCC (centres undefined)
109

And the next one, COC(=O)c1cccc(Br)c1 ?
115

Request: COc1ccc(-c2cc(-c3cc(-c4ccc(OC)cc4)nc(N)n3)nc(N)n2)cc1
105

Also check CCCCC1(CC)COC(CCC)OC1 (centres undefined)
103

Also COCCCC/C(=N\OCCN)c1ccc(C(F)(F)F)cc1 ?
96

Another compound: COc1ccccc1N1CCN(C(=S)Nc2ccccc2)CC1
96.7

What do we get for O=C(CC(=O)c1ccccc1O)c1ccccc1 ?
87.8

Now the compound COc1ccc2c(c1)CCc1c-2n[nH]c1-c1[nH]nc2c1CCc1cc(OC)ccc1-2
52.3

Please do the same for COc1cc2cc(OC(C)=O)c3cc4c(cc3c2c(OC)c1OC)OCO4 as well.
101

Moving on to the next compound: CN1C(=O)CN2CCc3ccccc3C2c2cc(Cl)ccc21 (centres undefined)
108

Subsequent entry: CC(C)OC(=O)c1cc(NC(=S)OC(C)C)ccc1Cl
70.5

Record: COc1ccccc1NC(=O)C1=C(C)NC(C)=C(C(=O)Nc2ccccc2OC)C1c1cccc([N+](=O)[O-])c1
75.8

// same read-out, input: CC(=O)N(C)c1ccc([N+](=O)[O-])cc1
102

Repeat for the following compound: S=c1nn[nH]c2ccccc12
112

Now the compound Cc1ccc(Cl)cc1N1C(=O)CC(Sc2ccccc2N)C1=O (centres undefined)
109

Follow-up entry: CCCCCCCCCCCCCCCCC1CC(=O)OC1=O (centres undefined)
109

Proceed to CCO/C=C1\SC(=S)N(c2cccc(C)c2)C1=O
102

// next record O=C1OC(=O)C2C1C1(Cl)C(Cl)=C(Cl)C2(Cl)C2C(=O)OC(=O)C21 (centres undefined)
104

Do the same for CCOC(=O)c1[nH]c(C)c(C(C)=O)c1C please
93

====

Would you mind telling me the reported growth of each entry?
Tested on: HCT-15 colon
Assay: NCI-60 one-dose screen, 48 h (100 = growth as untreated, 0 = no growth, -100 = all killed)
Conditions: 10 µM
Protocol: Growth inhibition of the HCT-15 human tumor cell line is measured as a screen for anti-cancer activity. Cells are grown in 96 well plates and exposed to the test compound for 48 hours. Compounds are tested at a single concentration, which is 10^-5 M for most compounds. The reported endpoint is percent growth (GI% or GIPRCNT), where numbers from 0 - 100% represent growth inhibition, and numbers from -100% - 0 represent cell death. For example, a value of 40 represents 60% growth inhibition. […]
The panel holds about 83,000 compounds, 20% with a hit somewhere; the sample as a whole holds those more often.
Note: unit % is implicit; provide only the numeric part.

// growth lookup, key: O=C(NCO)c1ccccc1
101

Continue with O=C1OC[C@H]2[C@H](c3ccc(O)c(O)c3)c3cc(O)c(O)cc3C[C@H]12
116

Follow-up item: Nc1ncnc2c1nc(N)n2C1OC(CO)C(O)C1O (centres undefined)
-7.88

Would you mind doing Nc1nc(N)c(N=Nc2ccc(C(=O)O)cc2)c(N)n1 as well?
109

What about N#CCc1ccc([N+](=O)[O-])cc1 ?
105

And CCOC(=O)c1cc2cccc(OC)c2oc1=O ?
97.3

Can you check O=C1c2ccccc2C(=O)N1OCc1ccccc1 next?
109

Lookup CC(=O)OCC(=O)[C@@]1(O)CC[C@H]2[C@@H]3CC[C@@H]4C[C@H](O)CC[C@]4(C)[C@H]3C(=O)C[C@@]21C
106

Now the molecule CCCCCCCCO
98.3

Please give the result for O=c1cc2oc3cc(O)c(O)cc3c(-c3ccccc3O)c-2cc1O too.
91.7

Now give it for Cc1ccc(O)c(C(=O)c2ccccc2)c1 too.
104

Try the molecule Cc1cc2ccccc2c(O)c1C#N
92.2

Another molecule to check: c1c(-c2cc(C3CC3)[nH]n2)n[nH]c1C1CC1
103

Repeat with O=C(CCl)N1CCN(C/C=C/c2ccccc2)CC1
86.3

Ok, now O=C(O)C(c1ccccc1)C(O)c1ccccc1 (centres undefined)
102

Item: O=c1cc(-c2ccccc2)oc2c1ccc1ccccc12
97.7

Also COc1cc2cc(c1Cl)N(C)C(=O)C[C@H](OC(=O)[C@H](C)N(C)C(C)=O)[C@]1(C)O[C@H]1[C@H](C)[C@@H]1C[C@@](O)(NC(=O)O1)[C@H](OC)C=C/C=C(\C)C2 , if possible.
-14.5

// repeat for COc1ccc(C(=O)C(Br)C(Br)C(=O)O)cc1 (centres undefined) and report
98.1

Record: O=C(/C=C/C(=O)c1ccccc1)c1ccccc1
79.2

====

Assignment: determine reported growth for the given molecules.
System: NCI-H322M lung
Experiment: NCI-60 one-dose screen, 48 h (100 = growth as untreated, 0 = no growth, -100 = all killed)
Conditions: 10 µM
About 83,000 compounds went through this panel and 20% of them were active in at least one assay; those are over-represented in the sample as a whole.
Write the number in % without appending the unit.

Request the reported growth associated with Cc1cccc(C(=O)N(C(C)C)C(C)C)c1
104

Please give the result for O=C(CS)Nc1ccc2ccccc2c1 too.
127

Likewise for O=c1cc(-c2ccccc2)[nH]c2c1CCCC2 ?
50.8

Please give the result for O=C(CCl)N1CCN(C/C=C/c2ccccc2)CC1 too.
109

Query O=C(N/N=C\c1cc(Br)cc(Br)c1O)N/N=C/c1cc(Br)cc(Br)c1O next
42.2

Another molecule to check: CN(C)C(=O)Oc1cccc([N+](C)(C)C)c1
129

Same for Nc1nc(N)c2cc(S(=O)(=O)c3cccc(C(F)(F)F)c3)ccc2n1
52.1

And the next one, COc1ccccc1N1CCN(C(=S)Nc2ccccc2)CC1 ?
93.2

Then what about the molecule O=C(NN=C1CCCCC1)C(=O)NN=C1CCCCC1 ?
124

Now try O=c1c2ccccc2c(Br)c(Br)c2ccccc12 .
119

Check O=[N+]([O-])c1ccc(-c2noc(-c3cccs3)n2)cc1 too.
81.4

Item: COC(=O)/C=C\C(=O)OC
125

// query: C/C(=N\NC(=O)c1ccccc1N)c1ccccc1O
26.4

Would you kindly repeat that for COCCCNC(=O)c1nnn2c1nc(N)c1cc(Cl)ccc12 ?
88.9

What do you get for Cc1ccc(C)n1-c1ccsc1C(=O)NNC(=O)C(Cl)Cl ?
98.6

Try the molecule COc1ccccc1C1OC2=Nc3cc(C)c(C)cc3NC2C1=O (centres undefined)
80.3

Another molecule to check: CCn1c(=O)n(C)c2c(=O)n(C)c(=O)n(C)c21
105

What do we get for C/C(=C\c1ccc([N+](=O)[O-])cc1)C(=O)O ?
111

Request: c1ncc2[nH]cnc2n1
85.7

Next record, please: CC(=O)c1cc2c(cc1F)C(C)(C)CCC2(C)C
96.8

Entry CCS(=O)(=O)CCCl please
97.1

Cool, now Cc1ccc(N)cc1[N+](=O)[O-]
129

Let us now turn to CC(C)=NNc1ccc([N+](=O)[O-])cc1[N+](=O)[O-]
87.9

Entry to check: CC1(O)OC(COc2ccc(Cl)cc2)COC1O (centres undefined)
104

What do you have for O=[N+]([O-])c1ccc(N=Nc2ccc(O)c3ccccc23)cc1 ?
79.3

And CCN=c1cc2sc3cc(NCC)c(C)cc3nc-2cc1C ?
27.3

Same lookup for COC(=O)c1cc(-c2ccc(Cl)c(Cl)c2)[nH]c(=O)c1C#N , please.
95.4

Next molecule up: CN(C)C(C)(C)CC(C)(C)C
116

Now this one: O=[N+]([O-])c1ccc(O)c(S(=O)(=O)O)c1
126
